measured target: Type-1 angiotensin II receptor (Bos taurus, UniProt P25104)
Sequence (P25104 whole entry): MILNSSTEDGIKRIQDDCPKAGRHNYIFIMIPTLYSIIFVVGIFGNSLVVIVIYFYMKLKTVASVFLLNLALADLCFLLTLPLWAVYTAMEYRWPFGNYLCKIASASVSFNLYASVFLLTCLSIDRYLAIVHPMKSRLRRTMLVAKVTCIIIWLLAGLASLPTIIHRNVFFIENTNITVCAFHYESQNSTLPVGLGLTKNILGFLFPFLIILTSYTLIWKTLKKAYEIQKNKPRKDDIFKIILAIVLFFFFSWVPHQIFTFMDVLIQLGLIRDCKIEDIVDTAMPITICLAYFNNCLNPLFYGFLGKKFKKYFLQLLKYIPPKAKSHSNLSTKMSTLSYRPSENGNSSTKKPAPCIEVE
// read-out IC50, gathered for Type-1 angiotensin II receptor (Bos taurus, UniProt P25104) from published studies
Just a reminder that ties go to no (0): only IC50 strictly below 100 nM counts as yes (1).

Past entries and their recorded results:
[
  {
    "molecule": "CCCCc1nc2ccc([C@H]3C4CCCCCCC4ON3C)cc2c(=O)n1Cc1ccc(-c2ccccc2-c2nn[nH]n2)cc1 (some centres undefined)",
    "group": "no (0)"
  },
  {
    "molecule": "CCCCc1nc2ccccc2n1Cc1ccc(O)c(C)c1",
    "group": "no (0)"
  },
  {
    "molecule": "CCCCc1nc(CO)c(C(=O)O)n1Cc1ccc(-c2ccccc2C(=O)O)cc1",
    "group": "yes (1)"
  },
  {
    "molecule": "CCCc1nc(C)c(C(=O)O)n1Cc1ccc(-c2ccccc2C(=O)O)cc1",
    "group": "no (0)"
  },
  {
    "molecule": "CCCCc1nc2ccccc2n1Cc1ccc(O)cc1",
    "group": "no (0)"
  },
  {
    "molecule": "CCCCc1nc2ccc([C@H]3[C@@H]4C(=O)OC[C@@H]4ON3C)cc2c(=O)n1Cc1ccc(-c2ccccc2-c2nn[nH]n2)cc1",
    "group": "yes (1)"
  }
]

Please state whether IC50 is below 100 nM for CCCOc1nc2c(C)cccn2c(=O)c1Cc1ccc(-c2ccccc2-c2nn[nH]n2)cc1 no (0)

Please state whether IC50 is below 100 nM for CCCCOc1nc2cccc(C(=O)OC)c2n1Cc1ccc(-c2ccccc2-c2nnn[nH]2)cc1 no (0)

Please state whether IC50 is below 100 nM for CCCCc1nc2ccc([C@H]3[C@@H]4C(=O)CC[C@@H]4ON3Cc3ccccc3)cc2c(=O)n1Cc1ccc(-c2ccccc2-c2nnn[nH]2)cc1 yes (1)
